Reference source: patent US10189841B2

# tested-on: USP1 (construct USP1 (I-785, GG670, 671AA)/UAF1 (I-677)-Flag) (Homo sapiens (Human), UniProt O94782, G670A/G671A)
# Sequence (O94782 whole entry G670A/G671A): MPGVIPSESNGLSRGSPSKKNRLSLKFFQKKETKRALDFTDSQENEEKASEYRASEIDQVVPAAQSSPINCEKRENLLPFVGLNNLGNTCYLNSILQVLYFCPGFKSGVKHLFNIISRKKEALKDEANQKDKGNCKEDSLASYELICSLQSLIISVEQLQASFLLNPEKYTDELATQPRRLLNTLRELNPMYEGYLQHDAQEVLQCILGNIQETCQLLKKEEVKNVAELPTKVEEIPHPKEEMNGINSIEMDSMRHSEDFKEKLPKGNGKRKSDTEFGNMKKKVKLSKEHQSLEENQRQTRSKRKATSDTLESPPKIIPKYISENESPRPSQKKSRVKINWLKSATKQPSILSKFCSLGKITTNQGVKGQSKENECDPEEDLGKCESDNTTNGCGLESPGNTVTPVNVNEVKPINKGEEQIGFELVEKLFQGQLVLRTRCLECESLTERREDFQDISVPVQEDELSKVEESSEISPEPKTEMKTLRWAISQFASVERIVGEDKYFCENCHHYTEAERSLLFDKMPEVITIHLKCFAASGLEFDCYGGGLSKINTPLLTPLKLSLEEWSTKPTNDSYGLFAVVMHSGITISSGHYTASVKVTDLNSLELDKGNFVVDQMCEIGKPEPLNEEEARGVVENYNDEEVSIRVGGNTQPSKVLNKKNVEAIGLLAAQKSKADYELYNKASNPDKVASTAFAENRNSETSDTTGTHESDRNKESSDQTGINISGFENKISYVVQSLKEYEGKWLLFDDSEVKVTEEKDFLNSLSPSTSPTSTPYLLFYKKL
# Sequence (Q8TAF3 whole entry partner): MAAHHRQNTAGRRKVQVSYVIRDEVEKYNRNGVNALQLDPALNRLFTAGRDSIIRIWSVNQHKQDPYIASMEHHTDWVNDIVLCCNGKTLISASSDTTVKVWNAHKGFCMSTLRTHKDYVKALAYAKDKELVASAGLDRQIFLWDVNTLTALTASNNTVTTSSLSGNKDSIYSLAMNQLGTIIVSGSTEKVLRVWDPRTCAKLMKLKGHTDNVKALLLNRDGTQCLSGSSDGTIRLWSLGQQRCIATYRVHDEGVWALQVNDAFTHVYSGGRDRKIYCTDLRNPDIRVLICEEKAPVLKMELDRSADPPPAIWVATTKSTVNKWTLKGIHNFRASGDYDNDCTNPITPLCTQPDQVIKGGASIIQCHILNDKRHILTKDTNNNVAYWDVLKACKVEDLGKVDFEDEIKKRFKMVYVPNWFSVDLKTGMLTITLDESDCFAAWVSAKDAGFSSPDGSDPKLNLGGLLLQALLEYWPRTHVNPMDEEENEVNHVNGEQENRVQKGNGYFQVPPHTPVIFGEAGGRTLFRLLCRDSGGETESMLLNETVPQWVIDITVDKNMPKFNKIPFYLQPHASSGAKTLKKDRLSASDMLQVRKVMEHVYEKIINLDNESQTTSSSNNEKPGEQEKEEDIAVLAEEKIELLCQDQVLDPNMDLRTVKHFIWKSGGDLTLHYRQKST
# method-description: Ubiquitin-Rhodamine 110 assay for USP1 activity
# condition: USP1/UAF1 25 pM, Ub-Rh110 25 nM, 30 min preincubation
# Protocol: Example 53: Ubitquin-Rhodamine 110 Assay for USP1 Activity […] Nanoliter quantities of either an 8-point or 10-point, 3-fold serial dilution in DMSO was pre-dispensed into assay plates (Perkin Elmer, ProxiPlate-384 F Plus, #6008269) for a final test concentration range of either 25 μM to 11 nM or 25 μM to 1.3 nM, respectively. […] Fluorescence was read on the Envision (Excitation at 485 nm and Emission at 535 nm; Perkin Elmer) or on the PheraSTAR (Excitation at 485 nm and Emission at 535 nm; BMG Labtech). […]
Provide the reported IC50 of each item.

If you can, please state the reported IC50 value of `CC(C)c1ccccc1-c1ncc2c(n1)n(Cc1ccc(-c3cccc(OCCN(C)C)c3)cc1)c(=O)n2C` .
50 to 200 nM

Input `CC(C)c1ccccc1-c1ncc2[nH]c(=O)n(Cc3ccc(C(=O)N4CCN(C)CC4)cc3)c2n1`
> 2000 nM

Input `CC(C)c1ccccc1-c1ncc2[nH]c(=O)n(Cc3ccc(-n4c(=O)ccn4C)cc3)c2n1`
50 to 200 nM

Input `CC(C)c1ccccc1-c1ncc2c(n1)n(CC1CCN(c3ncccn3)CC1)c(=O)n2C`
> 2000 nM

Input `CC(C)c1ccccc1-c1ncc2[nH]c(=O)n(Cc3ccc(C(=O)N4C[C@@H](C)O[C@@H](C)C4)cc3)c2n1`
50 to 200 nM

Input `CNC(=O)c1ccc(Cn2c(=O)[nH]c3cnc(-c4ccccc4C(C)C)nc32)cc1`
50 to 200 nM

Input `CC(C)c1ccccc1-c1ncc2[nH]c(=O)n(Cc3ccc(C(=O)NCCN4CCCCC4)cc3)c2n1`
> 2000 nM

---

Provide the reported IC50 of each item.
# tested-on: USP1 (construct USP1 (I-785, GG670, 671AA)/UAF1 (I-677)-Flag) (Homo sapiens (Human), UniProt O94782, G670A/G671A)
# method-description: Ubiquitin-Rhodamine 110 assay for USP1 activity
# condition: USP1/UAF1 25 pM, Ub-Rh110 25 nM, 30 min preincubation

If you can, please state the reported IC50 value of `CC(C)c1ncccc1-c1ncc2[nH]c(=O)n(Cc3ccc(-n4nccn4)cc3)c2n1` .
200 to 2000 nM

Input `CC(C)c1ccccc1-c1ncc2[nH]c(=O)n(Cc3ccc(-n4cccn4)c(F)c3)c2n1`
< 50 nM

Input CCC1CCCCN1C(=O)c1ccc(Cn2c(=O)[nH]c3cnc(-c4ccccc4C(C)C)nc32)cc1 (stereo not shown)
< 50 nM

Input `COc1ncccc1-c1ncc2[nH]c(=O)n(Cc3ccc(-c4nc(C(F)(F)F)cn4C)cc3)c2n1`
< 50 nM

Input `CC(C)c1ccccc1-c1ncc2[nH]c(=O)n(Cc3ccc(-c4cn(C(C)C)cn4)cc3)c2n1`
< 50 nM

Input `Cc1cc(N2CCC2)nn1-c1ccc(Cn2c(=O)n(C)c3cnc(-c4cccnc4C(C)C)nc32)cc1`
50 to 200 nM

Input `CC(C)c1ccccc1-c1ncc2[nH]c(=O)n(Cc3ccc(-n4nccn4)cc3)c2n1`
50 to 200 nM

---

# tested-on: USP1 (construct USP1 (I-785, GG670, 671AA)/UAF1 (I-677)-Flag) (Homo sapiens (Human), UniProt O94782, G670A/G671A)
# method-description: Ubiquitin-Rhodamine 110 assay for USP1 activity
# condition: USP1/UAF1 25 pM, Ub-Rh110 25 nM, 30 min preincubation
pIC50: −log10 of the molar value.
property: pIC50

If you can, please state the reported pIC50 value of `CC(C)c1ccccc1-c1ncc2c(n1)n(CC1CCN(C(=O)NC3CC3)CC1)c(=O)n2C` .
< 5.70

Input `COc1nc(-c2ccc(Cn3c(=O)[nH]c4cnc(-c5ccccc5C(C)C)nc43)cc2)nn1C`
> 7.30

Input CC(C)c1ccccc1-c1ncc2[nH]c(=O)n(Cc3ccc(C(=O)N4CCCC4C)cc3)c2n1 (centres unmarked)
> 7.30

Input `CC(=O)N1CC(n2cc(C(F)(F)F)nc2-c2ccc(Cn3c(=O)[nH]c4cnc(-c5ccccc5C(C)C)nc43)cc2)C1`
> 7.30

Input `COC(=O)N1CCC(c2ccn(-c3ccc(Cn4c(=O)[nH]c5cnc(-c6ccccc6C(C)C)nc54)cc3)n2)CC1`
> 7.30

Input `CC(C)c1ccccc1-c1ncc2[nH]c(=O)n(Cc3ccc(C(=O)N4CCOC[C@@H]4C)cc3)c2n1`
5.70 to 6.70

Input `CC(C)c1ccccc1-c1ncc2[nH]c(=O)n(Cc3ccc(C(=O)NC4COC4)cc3)c2n1`
5.70 to 6.70

Input CC(C)c1ccccc1-c1ncc2[nH]c(=O)n(Cc3ccc(-n4ccc(C5CCN(C)C5)n4)cc3)c2n1 (centres unmarked)
5.70 to 6.70

Input `COCC1(N(C)C(=O)c2ccc(Cn3c(=O)[nH]c4cnc(-c5ccccc5C(C)C)nc43)cc2)CC1`
> 7.30

Input `Cn1cc(C(F)(F)F)nc1-c1ccc(Cn2c(=O)[nH]c3cnc(-c4cccnc4C4CC4)nc32)cc1`
> 7.30

Input `CC(C)c1c(F)cccc1-c1ncc2c(n1)n(Cc1ccc(-c3nc(C(F)(F)F)cn3C)cc1)c(=O)n2C`
> 7.30

Input CC(C)c1ccccc1-c1ncc2c(n1)n(Cc1ccc(-n3cccn3)cc1)c(=O)n2C(C)C(=O)O (centres unmarked)
5.70 to 6.70

Input `CC(C)c1ccccc1-c1ncc2[nH]c(=O)n(Cc3ccc(C(=O)N4CC(F)C4)cc3)c2n1`
6.70 to 7.30

Input `CC(C)c1c(F)cccc1-c1ncc2[nH]c(=O)n(Cc3ccc(-c4nc(C(F)(F)F)cn4C4COC4)cc3)c2n1`
> 7.30

---

Provide the reported pIC50 of each item.
# tested-on: USP1 (construct USP1 (I-785, GG670, 671AA)/UAF1 (I-677)-Flag) (Homo sapiens (Human), UniProt O94782, G670A/G671A)
# method-description: Ubiquitin-Rhodamine 110 assay for USP1 activity
# condition: USP1/UAF1 25 pM, Ub-Rh110 25 nM, 30 min preincubation
pIC50: −log10 of the molar value.

If you can, please state the reported pIC50 value of `Cc1c(-c2ccc(Cn3c(=O)[nH]c4cnc(-c5ccccc5C(C)C)nc43)cc2)cnn1C` .
6.70 to 7.30

Input COCC1CCCCN1C(=O)c1ccc(Cn2c(=O)[nH]c3cnc(-c4ccccc4C(C)C)nc32)cc1 (stereo not shown)
6.70 to 7.30

Input CC(C)c1ccccc1-c1ncc2[nH]c(=O)n(C3CCC34CN(S(=O)(=O)C(C)C)C4)c2n1 (stereo not shown)
5.70 to 6.70

Input `Cc1cn(C)c(N2CCC(Cn3c(=O)n(C)c4cnc(-c5ccccc5C(C)C)nc43)CC2)n1`
6.70 to 7.30

Input `Cn1cc(C(F)(F)F)nc1-c1ccc(Cn2c(=O)n(C)c3cnc(-c4cccnc4N4CCOCC4)nc32)cc1`
5.70 to 6.70

Input `Cn1cc(C(F)(F)F)nc1-c1ccc(Cn2c(=O)[nH]c3cnc(-c4cccnc4NC4CC4)nc32)cc1`
> 7.30

Input `CC(=O)N1CCC(c2cn(C)c(-c3ccc(Cn4c(=O)[nH]c5cnc(-c6ccccc6C(C)C)nc54)cc3)n2)CC1`
> 7.30

---

# tested-on: USP1 (construct USP1 (I-785, GG670, 671AA)/UAF1 (I-677)-Flag) (Homo sapiens (Human), UniProt O94782, G670A/G671A)
# method-description: Ubiquitin-Rhodamine 110 assay for USP1 activity
# condition: USP1/UAF1 25 pM, Ub-Rh110 25 nM, 30 min preincubation
pIC50: −log10 of the molar value.
property: pIC50

If you can, please state the reported pIC50 value of `Cc1nc(-c2ccc(Cn3c(=O)n(C)c4cnc(-c5ccccc5C(C)C)nc43)cc2)c(C)s1` .
> 7.30

Input `Cc1cc(N2CCC2)nn1-c1ccc(Cn2c(=O)[nH]c3cnc(-c4cccnc4C(C)C)nc32)cc1`
6.70 to 7.30

Input `CC(C)c1ccccc1-c1ncc2[nH]c(=O)n(Cc3ccc(C(=O)N(C)CC(F)(F)F)cc3)c2n1`
6.70 to 7.30

Input `CC(C)c1c(F)cccc1-c1ncc2[nH]c(=O)n(Cc3ccc(-c4nc(C(F)(F)F)cn4C)cc3)c2n1`
> 7.30

Input `Cc1cc(Cl)n(-c2ccc(Cn3c(=O)[nH]c4cnc(-c5ccccc5C(C)C)nc43)cc2)n1`
> 7.30

Input `CC(C)c1ccccc1-c1ncc2c(n1)n(Cc1ccc(-c3cccn4ccnc34)cc1)c(=O)n2C`
> 7.30

Input `CC(C)COc1ncccc1-c1ncc2[nH]c(=O)n(Cc3ccc(-c4nc(C(F)(F)F)cn4C)cc3)c2n1`
> 7.30
